target: long isoform of human D2 receptor (Homo sapiens, UniProt P14416); experiment: cAMP HTRF Agonist Assay (DRD2L PathHunter CHO-K1 cells, forskolin-stimulated)
Sequence (P14416 whole entry, canonical isoform): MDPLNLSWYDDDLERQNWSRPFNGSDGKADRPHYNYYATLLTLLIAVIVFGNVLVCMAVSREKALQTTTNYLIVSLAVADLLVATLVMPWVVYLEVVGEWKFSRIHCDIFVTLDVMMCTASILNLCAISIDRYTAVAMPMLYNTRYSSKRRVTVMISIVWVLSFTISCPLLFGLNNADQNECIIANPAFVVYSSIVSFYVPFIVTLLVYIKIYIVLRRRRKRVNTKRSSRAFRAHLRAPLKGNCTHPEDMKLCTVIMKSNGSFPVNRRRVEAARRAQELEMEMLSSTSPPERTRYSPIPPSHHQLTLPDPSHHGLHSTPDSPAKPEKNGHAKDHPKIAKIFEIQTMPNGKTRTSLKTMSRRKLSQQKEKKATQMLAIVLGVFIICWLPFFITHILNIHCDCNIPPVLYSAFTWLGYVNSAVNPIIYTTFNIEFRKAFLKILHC
experimental.endpoint: IC50

Solved entries:
1) Clc1cccc2c1CCN(CCCCOc1cccc(-c3cc[nH]n3)n1)C2	< 10 nM
2) CCOc1ccccc1N1CCN(CCCCOc2cccc(-c3cc[nH]n3)n2)CC1	< 10 nM
3) N#Cc1cccc2c1CCN(CCCCOc1ccc3ccc(=O)[nH]c3n1)C2	< 10 nM
4) Oc1cccc2ccc(OCCCCN3CCc4cc(F)ccc4C3)nc12	> 10000 nM
5) O=C1CCc2ccc(OCCCCN3CCc4nn(-c5ccc(F)cc5)cc4C3)cc2N1	> 10000 nM

Prompt: Read the entry O=C1CCc2ccc(OCCCCN3CCc4cccc(C(F)(F)F)c4C3)nc2N1 and write its reported IC50.
Completion: > 10000 nM

Prompt: Return reported IC50. Input compound: COc1cccnc1N1CCN(CCCCOc2cccc(-c3cc[nH]n3)n2)CC1
Completion: < 10 nM

Prompt: Consider the compound O=C1CCc2ccc(OCCCCN3CCc4cc(Cl)ccc4C3)nc2N1 . State its measured IC50.
Completion: < 10 nM

Prompt: Look up and report measured IC50 for this entry: Oc1cccc2ccc(OCCCCN3CCc4ccccc4C3)nc12
Completion: > 10000 nM
